procedure.summary: APR_HepG2_MicrotubuleCSK_72hr: Apredica 72-hour HepG2 Assay for Microtubule CSK Stabilty (AID 2282919)
reported.conditions: HepG2 microtubule cytoskeleton, high-content imaging, actives raise or lower the signal
Calls of active or inactive are those of the source. Rule for the calls: active = hit-call score of the fitted dose curve at least 0.9, where 1 is the maximum; inactive = score below 0.9.
The reply should name one outcome from active, inactive

Solved cases (5 shown):
compound: COc1cccc(-c2ccc(/C=C\CN3CCCCCC3)cc2Cl)c1
discrete.label: inactive
//
compound: Clc1nc(Cl)c(Cl)c(Cl)c1Cl
discrete.label: inactive
//
compound: Fc1ccccc1[C@@H](F)COC1CCC(Nc2ncnc3[nH]ncc23)CC1 (stereo partly specified)
discrete.label: active
//
compound: CCCN(C1CCN(C(=O)C2CCNCC2)CC1)[C@@H]1CCc2ccc(OC)cc2C1
discrete.label: inactive
//
compound: CC1=CC(=O)CC(C)(C)C1
discrete.label: inactive

-- ask So what was the verdict on CC(O)CN(CCN(CC(C)O)CC(C)O)CC(C)O (stereo unspecified) in this test?
-- reply inactive

-- ask Which result was noted for this compound in the test: `CC[C@H]1CC[C@H](NCc2cc3c(cc2OC)[C@H]2C[C@H]2C(=O)N3C)[C@H](c2ccccc2)N1`
-- reply inactive

Recorded values, source PubChem BioAssay (EPA / NIEHS).
